Value source: ChEMBL document CHEMBL4043208

Could you please report measured inhibition for the items listed next?
# Test system: Bacillus subtilis subsp. subtilis str. 168
# assayMethodText: Inhibition of Bacillus subtilis 168 RNA polymerase subunit beta' CH region interaction with full length sigmaA at 15 uM by ELISA relative to control
// note: answer is a bare numeric in %

**Query** Look up and state reported inhibition for `COc1cc(OC)c2c(-c3ccc(Cl)cc3)c[nH]c2c1C=C1C(=O)NC(=O)NC1=O`
**Result** 15

**Query** Look up and state reported inhibition for `COc1cc(OC)c2cc(C(=O)O)[nH]c2c1/C=C1\SC(=S)NC1=O`
**Result** 36

**Query** Look up and state reported inhibition for `COc1cc(OC)c2c(-c3ccccc3)c[nH]c2c1/C=C1\SC(=S)NC1=O`
**Result** 17

**Query** Look up and state reported inhibition for `COc1cc(OC)c2c(-c3ccc(Cl)cc3)c[nH]c2c1C=C1C(=O)NC(=S)NC1=O`
**Result** 14

**Query** Look up and state reported inhibition for `COc1cc(OC)c2c(-c3ccc(Cl)cc3)c[nH]c2c1/C=C1\SC(=S)NC1=O`
**Result** 21

**Query** Look up and state reported inhibition for `C=CCN1C(=O)/C(=C/c2c(OC)cc(OC)c3cc(C(=O)O)[nH]c23)SC1=S`
**Result** 74

**Query** Look up and state reported inhibition for `COc1cc(OC)c2c(-c3ccccc3)c[nH]c2c1C=C1C(=O)NC(=O)NC1=O`
**Result** 45

**Query** Look up and state reported inhibition for `C=CCN1C(=O)/C(=C/c2c(OC)cc(OC)c3c(-c4ccccc4)c[nH]c23)SC1=S`
**Result** 0

**Query** Look up and state reported inhibition for `COC(=O)c1cc2c(OC)cc(OC)c(/C=C3\SC(=S)NC3=O)c2[nH]1`
**Result** 3
